# targetDesc: T1, Human CD47-C33G (human, UniProt Q08722 19-135)
# T1 construct: also called CD47 mutein with C33G mutation
# T1 sequence (Q08722 19-135 C33G limits assumed): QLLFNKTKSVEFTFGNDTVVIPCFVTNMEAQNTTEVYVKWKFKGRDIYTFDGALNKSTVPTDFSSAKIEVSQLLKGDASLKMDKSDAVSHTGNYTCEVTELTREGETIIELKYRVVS
# experimentDescription: SPR, IgG captured, CD47 in flow; exp 2;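 further: rates derived from association and dissociation curves, KD estimated from them, C33G mutein used to avoid CD47 IgV homodimers for true monovalent affinity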
observationType: kon (M⁻¹ s⁻¹)
Dear colleague, please return just the value in M⁻¹ s⁻¹, with no unit written.

Entry 108VH10 / 108VL10.Mb (antibody, V domains shown, 4D5-framework series; constant regions not restated for this series; also called VH10 VL10.Mb) VH: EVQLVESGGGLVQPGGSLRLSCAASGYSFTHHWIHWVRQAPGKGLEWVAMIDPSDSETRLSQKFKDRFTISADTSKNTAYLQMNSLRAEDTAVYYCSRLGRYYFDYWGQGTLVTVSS VL: DIQMTQSPSSLSASVGDRVTITCRASENVGTYISWYQQKPGKAPKLLIYAASNRYTGVPSRFSGSRSGTDFTLTISSLQPEDFATYYCGESYGHLYTFGQGTKVEIK — recorded kon = 47000

Given item chimeric antibody 108C10A6 (antibody, V domains shown, Chimeric antibody with mouse variable domains; captured through human Fc; also called VH / VL) VH: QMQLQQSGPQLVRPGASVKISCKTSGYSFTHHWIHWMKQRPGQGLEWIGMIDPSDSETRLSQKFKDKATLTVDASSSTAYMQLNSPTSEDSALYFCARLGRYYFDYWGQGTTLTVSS VL: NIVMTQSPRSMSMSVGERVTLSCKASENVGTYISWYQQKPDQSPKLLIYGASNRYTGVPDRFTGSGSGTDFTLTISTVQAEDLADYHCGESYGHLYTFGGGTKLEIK , the value recorded as its kon is 590000

get_value(item= 108VH10.Mf / 108VL10.M1 (antibody, V domains shown, 4D5-framework series; constant regions not restated for this series; also called VH10.Mf VL10.M1) VH: EVQLVESGGGLVQPGGSLRLSCAASGYSFTHHWIHWVRQAPGKGLEWVAMIDPSDSETRLVDSVKGRFTISADTSKNTAYLQMNSLRAEDTAVYYCSRLGRYYFDYWGQGTLVTVSS VL: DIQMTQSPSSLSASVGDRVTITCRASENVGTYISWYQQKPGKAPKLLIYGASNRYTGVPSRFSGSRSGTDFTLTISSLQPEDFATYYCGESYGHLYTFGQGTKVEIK , readout=kon) returns 49000

According to the records, this binder 108VH4.M4-VL1.M1 (antibody, V domains shown, also called original humanized 108C10A6 antibody) VH: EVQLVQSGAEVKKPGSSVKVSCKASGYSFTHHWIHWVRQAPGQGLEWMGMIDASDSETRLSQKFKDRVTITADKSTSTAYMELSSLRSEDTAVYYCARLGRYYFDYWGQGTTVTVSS VL: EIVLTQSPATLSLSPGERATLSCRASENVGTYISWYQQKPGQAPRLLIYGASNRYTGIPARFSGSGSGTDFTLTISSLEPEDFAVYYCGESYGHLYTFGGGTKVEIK displays kon of 380000

// field: kon; key: 108VH10 / 108VL10.Mc (antibody, V domains shown, 4D5-framework series; constant regions not restated for this series; also called VH10 VL10.Mc) VH: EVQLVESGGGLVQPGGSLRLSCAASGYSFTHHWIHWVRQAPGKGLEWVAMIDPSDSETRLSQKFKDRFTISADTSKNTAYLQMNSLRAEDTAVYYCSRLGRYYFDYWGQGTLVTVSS VL: DIQMTQSPSSLSASVGDRVTITCRASENVGTYISWYQQKPGKAPKLLIYGASSRYTGVPSRFSGSRSGTDFTLTISSLQPEDFATYYCGESYGHLYTFGQGTKVEIK ; value = 69000
